Tested on: RXF 393 renal
protocol: NCI-60 one-dose screen, 48 h
conditions: 10 µM unless noted
Method: Cells are grown in 96 well plates and exposed to the test compound for 48 hours. Compounds are tested at a single concentration, which is 10^-5 M for most compounds. The reported endpoint is percent growth (GI% or GIPRCNT), where numbers from 0 - 100% represent growth inhibition, and numbers from -100% - 0 represent cell death. For example, a value of 40 represents 60% growth inhibition. A value of 0 means no net growth occurred over the course of the experiment. […]
This is part of a sample that, as a whole, favours compounds with a hit. Of some 83,000 tested, about 20% had one in any assay. Activity calls are given as the source filed them. Rule for the calls: active = growth percent below 10; inactive = the rest.
Outcome codes: active, inactive

molecule="COC1/C=C\\OC2(C)Oc3c(C)c(O)c4c(O)c(c(CN(C)CCO)c(O)c4c3C2=O)NC(=O)/C(C)=C\\C=C/C(C)C(O)C(C)C(O)C(C)C(OC(C)=O)C1C (stereo not drawn)" discrete_label=inactive
molecule=CN1CCN(Cc2ccc(NC(=O)c3[nH]ncc3Nc3ncnc4sccc34)cc2)CC1 discrete_label=active
molecule=COc1cccc(-c2nc3sccn3c2-c2ccnc(NCCCNS(=O)(=O)c3ccc(Cl)cc3)c2)c1 discrete_label=inactive
molecule=CCCCNP1(NCCCC)=NP(NCCCC)(NCCCC)=NP(NCCCC)(NCCCC)=NP(NCCCC)(NCCCC)=N1 discrete_label=inactive
molecule=COC(=O)[C@@H]1CC[C@]2(C)[C@H](CC[C@@H]3O[C@@]32C)[C@@]1(C)CC(=O)c1ccoc1 discrete_label=inactive
molecule=Nc1cc(-c2nc3sccn3c2-c2ccnc(NCCCNS(=O)(=O)c3ccc(F)cc3)n2)ccc1F discrete_label=inactive
molecule="OC(c1cc(-c2ccccc2)nc2ccc(Cl)cc12)C1CCCCN1 (stereo not drawn)" discrete_label=inactive
molecule=COc1ccc(-c2c(C)noc2-c2ccc(O)cc2O)cc1 discrete_label=inactive
molecule=COc1ccc(-c2nn(-c3ccccc3)cc2/C=C/C(=O)OCc2cn(-c3ccc(F)c(Cl)c3)nn2)cc1 discrete_label=inactive
molecule=Cc1ccc2c(c1)C(=O)c1c-2c(OCCCN(C)C)nc2ccccc12 discrete_label=inactive
molecule=Oc1c(Cl)cc(Cl)cc1CNc1nccnn1 discrete_label=inactive
molecule=O=C1/C(=C/c2ccc(Cl)c(Cl)c2)CN(C(=O)CCN2CCC(=NO)CC2)C/C1=C\c1ccc(Cl)c(Cl)c1 discrete_label=active
molecule=O=C(/C=C/c1ccc(Cl)cc1)/C=C/c1cc2ccccc2[nH]c1=O discrete_label=inactive
molecule=Cc1ccc2c(c1)n([O-])c1cc(Cl)ccc1[n+]2=O discrete_label=inactive
molecule="CCCCCCCCCCCCCCCCCCNC(=O)[C@H]1CSC(c2ccc(OC)c(F)c2)N1 (stereo partly drawn)" discrete_label=active
molecule=Cc1ccc(N)cc1F discrete_label=inactive
molecule="CCN(CC)CCCC(C)N/C(=C1\\C(=O)NC(=O)\\C1=C(/NC(C)CCCN(CC)CC)c1cccc(OC)c1)c1cccc(OC)c1 (stereo not drawn)" discrete_label=active
molecule=C=C1C(=O)O[C@H]2[C@H]1CC/C(Cn1cc(Cn3ccc4cc(Cl)ccc43)nn1)=C\CC[C@@]1(C)O[C@@H]21 discrete_label=active
molecule=Nc1c(C(=O)Nc2ccccc2)sc2nc3c(cc12)CN(CCc1ccccc1)CC3 discrete_label=inactive
molecule=CSc1ccc(N=C=C(c2ccccc2)c2ccccc2)cc1 discrete_label=inactive
molecule=CCN(CC)CCCNc1cc(OC)cc2nc3cc(Cl)ccc3nc12 discrete_label=active
molecule=COc1cc(/C=N\NC(=O)CN2CCN(c3cc4c(cc3F)c(=O)c(C(=O)N/N=C/c3ccc(O)c(OC)c3)cn4C3CC3)CC2)ccc1O discrete_label=inactive
molecule=CC[n+]1ccc2c(c1)C(=O)c1nccc3c1c-2nc1ccccc13 discrete_label=active
